- Tested on: CHO
- PROTOCOL_DESCRIPTION: Selectivity ratio of Ki for human CB1 receptor expressed in CHO cell membranes to Ki for human CB2 receptor expressed in CHO cell membranes
- Type: cell-based
REPORTED_PROPERTY: Ratio Ki

Lookup result for `CCCCCn1cc(C(=O)NC2CCCCC2)c(=O)n2nc(N(C)Cc3ccccc3)nc12` ; measured Ratio Ki: > 7

Lookup result for `C=CCN(CC=C)c1nc2n(CCCCC)cc(C(=O)NC3CCCCC3)c(=O)n2n1` ; measured Ratio Ki: > 7

Lookup result for `CCCCCn1cc(C(=O)NC23CC4CC(CC(C4)C2)C3)c(=O)n2nc(N(C)Cc3ccccc3)nc12` ; measured Ratio Ki: > 476

Lookup result for `C=CCN(CC=C)c1nc2n(CCCCC)cc(C(=O)NC34CC5CC(CC(C5)C3)C4)c(=O)n2n1` ; measured Ratio Ki: > 63

Lookup result for `CCCCCn1cc(C(=O)NC2CCCCCC2)c(=O)n2nc(N3CCN(C)CC3)nc12` ; measured Ratio Ki: > 10

Lookup result for `CCCCCn1cc(C(=O)NC2CCCCCC2)c(=O)n2nc(N3CCOCC3)nc12` ; measured Ratio Ki: > 18
